FYI, the data here is from ChEMBL document CHEMBL1131590.

# PROTOCOL_SUMMARY: In vitro inhibition of [3H]Oxo-Mas binding to M2 and M4 receptors in rat brain homogenate.
pIC50: −log10 of the molar value.

# SMILES_STRING, pIC50
measured = [
    ("CCCCSc1nsnc1C1=CCCN(C)C1", 8.89),
]

---

# PROTOCOL_SUMMARY: In vitro inhibition of [3H]Oxo-Mas binding to M2 and M4 receptors in rat brain homogenate.
pIC50: −log10 of the molar value.

# COMPOUND, pIC50
records = [
    ("CCCCSc1nsnc1[C@H]1CN2CCC[C@H]1C2", 8.64),
    ("CCCSc1nsnc1[C@H]1CN2CCC[C@@H]1C2", 9.19),
    ("CCCSc1nsnc1[C@H]1CN2CCC[C@H]1C2", 8.44),
    ("CSc1nsnc1C1CN2CCC[C@H]1C2 (stereo not given in full)", 8.54),
    ("CCCCSc1nsnc1[C@@H]1CN2CCC[C@@H]1C2", 8.00),
    ("CCCCSc1nsnc1[C@@H]1CN2CCC[C@H]1C2", 9.28),
    ("CCCSc1nsnc1[C@@H]1CN2CCC[C@H]1C2", 9.19),
    ("CCSc1nsnc1C1CN2CCC[C@H]1C2 (stereo not given in full)", 8.89),
    ("CCCCSc1nsnc1C1CN2CCC[C@@H]1C2 (stereo not given in full)", 8.21),
    ("CCCCSc1nsnc1C1CN2CC[C@H]1C2 (stereo not given in full)", 8.89),
    ("CCCCCCSc1nsnc1C1CN2CCC[C@H]1C2 (stereo not given in full)", 8.48),
    ("CCCCCSc1nsnc1C1CN2CCC[C@H]1C2 (stereo not given in full)", 8.60),
    ("CCCCSc1nsnc1C1CN2CCC[C@H]1C2 (stereo not given in full)", 9.33),
    ("CC[C@@H]1C(=O)OC[C@@H]1Cc1cncn1C", 7.17),
    ("CCCCSc1nsnc1[C@H]1CN2CCC[C@@H]1C2", 9.30),
    ("CCCCSc1nsnc1C1CN2CC[C@@H]1C2 (stereo not given in full)", 8.38),
    ("CCCCSc1nsnc1C1CN2CCC1CC2 (stereo not given)", 8.66),
    ("CCCSc1nsnc1[C@@H]1CN2CCC[C@@H]1C2", 7.88),
    ("O=C1CCCN1CC#CCN1CCCC1", 8.30),
    ("CCCSc1nsnc1C1CN2CCC[C@H]1C2 (stereo not given in full)", 8.85),
]
